tested on: Klebsiella pneumoniae; assay: Antimicrobial activity against extended spectrum beta-lactamases-producing Klebsiella pneumoniae 10-3 after 18-24 hrs by two-fold serial dilution method; type: functional
observation-type: MIC

>  <molecule>
COc1cc(CO/N=C2\CN(c3nc4c(cc3F)c(=O)c(C(=O)O)cn4C3CC3)CC2CN)ccc1OCc1ccccc1.CS(=O)(=O)O (racemic)

>  <val>
> 128 mg/L

$$$$
>  <molecule>
COc1cc(Br)c(CO/N=C2\CN(c3nc4c(cc3F)c(=O)c(C(=O)O)cn4C3CC3)CC2CN)cc1OC.CS(=O)(=O)O (racemic)

>  <val>
> 128 mg/L

$$$$
>  <molecule>
CS(=O)(=O)O.NCC1CN(c2nc3c(cc2F)c(=O)c(C(=O)O)cn3C2CC2)C/C1=N\OCc1cc2c(cc1Cl)OCO2 (racemic)

>  <val>
> 128 mg/L

$$$$
>  <molecule>
CS(=O)(=O)O.NCC1CN(c2nc3c(cc2F)c(=O)c(C(=O)O)cn3C2CC2)C/C1=N\OCc1cc2c(cc1[N+](=O)[O-])OCO2 (racemic)

>  <val>
> 128 mg/L

$$$$
>  <molecule>
COc1ccc(CO/N=C2\CN(c3nc4c(cc3F)c(=O)c(C(=O)O)cn4C3CC3)CC2CN)c(Cl)c1OC.CS(=O)(=O)O (racemic)

>  <val>
> 128 mg/L

$$$$
>  <molecule>
COc1ccc(OC)c(CO/N=C2\CN(c3nc4c(cc3F)c(=O)c(C(=O)O)cn4C3CC3)CC2CN)c1.CS(=O)(=O)O (racemic)

>  <val>
> 128 mg/L

$$$$
>  <molecule>
COc1cc(F)c(CO/N=C2\CN(c3nc4c(cc3F)c(=O)c(C(=O)O)cn4C3CC3)CC2CN)cc1OC.CS(=O)(=O)O (racemic)

>  <val>
> 128 mg/L

$$$$
>  <molecule>
CS(=O)(=O)O.NCC1CN(c2nc3c(cc2F)c(=O)c(C(=O)O)cn3C2CC2)C/C1=N\OCc1ccc2c(c1)OCCO2 (racemic)

>  <val>
4 mg/L

$$$$
>  <molecule>
COc1cccc(OC)c1CO/N=C1\CN(c2nc3c(cc2F)c(=O)c(C(=O)O)cn3C2CC2)CC1CN.CS(=O)(=O)O (racemic)

>  <val>
> 128 mg/L

$$$$
>  <molecule>
COc1ccc(CO/N=C2\CN(c3nc4c(cc3F)c(=O)c(C(=O)O)cn4C3CC3)CC2CN)c(OC)c1OC.CS(=O)(=O)O (racemic)

>  <val>
> 128 mg/L

$$$$
>  <molecule>
COc1ccc(CO/N=C2\CN(c3nc4c(cc3F)c(=O)c(C(=O)O)cn4C3CC3)CC2CN)cc1OC.CS(=O)(=O)O (racemic)

>  <val>
> 128 mg/L

$$$$
>  <molecule>
COc1cc(CO/N=C2\CN(c3nc4c(cc3F)c(=O)c(C(=O)O)cn4C3CC3)CC2CN)c([N+](=O)[O-])cc1OC.CS(=O)(=O)O (racemic)

>  <val>
> 128 mg/L

$$$$
>  <molecule>
CS(=O)(=O)O.NCC1CN(c2nc3c(cc2F)c(=O)c(C(=O)O)cn3C2CC2)C/C1=N\OCc1ccc2c(c1)OCO2 (racemic)

>  <val>
128 mg/L

$$$$

====

system: Escherichia coli; assay: Antimicrobial activity against extended spectrum beta-lactamases-producing Escherichia coli 10-3 after 18-24 hrs by two-fold serial dilution method; assay type: functional
Some molecules, each annotated with its measured MIC.

>  <molecule>
CS(=O)(=O)O.NCC1CN(c2nc3c(cc2F)c(=O)c(C(=O)O)cn3C2CC2)C/C1=N\OCc1ccc2c(c1)OCO2 (racemic)

>  <MIC>
16 µg/mL

$$$$
>  <molecule>
C[C@H]1COc2c(N3CCN(C)CC3)c(F)cc3c(=O)c(C(=O)O)cn1c23.C[C@H]1COc2c(N3CCN(C)CC3)c(F)cc3c(=O)c(C(=O)O)cn1c23.O

>  <MIC>
8 µg/mL

$$$$
>  <molecule>
CS(=O)(=O)O.Cc1ccc(CO/N=C2\CN(c3nc4c(cc3F)c(=O)c(C(=O)O)cn4C3CC3)CC2CN)cc1C (racemic)

>  <MIC>
> 128 µg/mL

$$$$

====

tested on: Pseudomonas aeruginosa; assay: Antimicrobial activity against extended spectrum beta-lactamases-producing Pseudomonas aeruginosa 10-5 after 18-24 hrs by two-fold serial dilution method; format: functional

>  <compound>
COc1cc(CO/N=C2\CN(c3nc4c(cc3F)c(=O)c(C(=O)O)cn4C3CC3)CC2CN)ccc1OC(F)F.CS(=O)(=O)O (racemic)

>  <MIC / µg/mL>
8

$$$$
>  <compound>
COc1ccc(CO/N=C2\CN(c3nc4c(cc3F)c(=O)c(C(=O)O)cn4C3CC3)CC2CN)c(OC)c1.CS(=O)(=O)O (racemic)

>  <MIC / µg/mL>
4

$$$$
>  <compound>
CS(=O)(=O)O.NCC1CN(c2nc3c(cc2F)c(=O)c(C(=O)O)cn3C2CC2)C/C1=N\OCc1ccc2c(c1)OCO2 (racemic)

>  <MIC / µg/mL>
8

$$$$
>  <compound>
COc1ccc(CO/N=C2\CN(c3nc4c(cc3F)c(=O)c(C(=O)O)cn4C3CC3)CC2CN)c(OC)c1OC.CS(=O)(=O)O (racemic)

>  <MIC / µg/mL>
8

$$$$

====

system: Staphylococcus epidermidis; experiment: Antimicrobial activity against extended spectrum beta-lactamases-producing methicillin-sensitive Staphylococcus epidermidis 10-13 after 18-24 hrs by two-fold serial dilution method; assay type: functional
Dear colleague, classification is by MIC, with ranges listed here: low class: < 0.06 µg/mL; middle class: ≥ 0.06 µg/mL and < 2 µg/mL; high class: ≥ 2 µg/mL

>  <molecule>
COc1cc(CO/N=C2\CN(c3nc4c(cc3F)c(=O)c(C(=O)O)cn4C3CC3)CC2CN)ccc1OC(F)F.CS(=O)(=O)O (racemic)

>  <label-class>
high class

$$$$
>  <molecule>
COc1ccc(CO/N=C2\CN(c3nc4c(cc3F)c(=O)c(C(=O)O)cn4C3CC3)CC2CN)c(OC)c1.CS(=O)(=O)O (racemic)

>  <label-class>
middle class

$$$$
>  <molecule>
COc1ccc(OC)c(CO/N=C2\CN(c3nc4c(cc3F)c(=O)c(C(=O)O)cn4C3CC3)CC2CN)c1.CS(=O)(=O)O (racemic)

>  <label-class>
low class

$$$$
>  <molecule>
COc1ccc(CO/N=C2\CN(c3nc4c(cc3F)c(=O)c(C(=O)O)cn4C3CC3)CC2CN)cc1OC.CS(=O)(=O)O (racemic)

>  <label-class>
middle class

$$$$
>  <molecule>
COc1cc(Br)c(CO/N=C2\CN(c3nc4c(cc3F)c(=O)c(C(=O)O)cn4C3CC3)CC2CN)cc1OC.CS(=O)(=O)O (racemic)

>  <label-class>
low class

$$$$
>  <molecule>
COc1ccc(CO/N=C2\CN(c3nc4c(cc3F)c(=O)c(C(=O)O)cn4C3CC3)CC2CN)c(OC)c1OC.CS(=O)(=O)O (racemic)

>  <label-class>
low class

$$$$
>  <molecule>
CS(=O)(=O)O.NCC1CN(c2nc3c(cc2F)c(=O)c(C(=O)O)cn3C2CC2)C/C1=N\OCc1cc2c(cc1Cl)OCO2 (racemic)

>  <label-class>
high class

$$$$
>  <molecule>
COc1cc(CO/N=C2\CN(c3nc4c(cc3F)c(=O)c(C(=O)O)cn4C3CC3)CC2CN)c([N+](=O)[O-])cc1OC.CS(=O)(=O)O (racemic)

>  <label-class>
middle class

$$$$
>  <molecule>
COc1cc(CO/N=C2\CN(c3nc4c(cc3F)c(=O)c(C(=O)O)cn4C3CC3)CC2CN)cc(Cl)c1OC.CS(=O)(=O)O (racemic)

>  <label-class>
low class

$$$$
>  <molecule>
C[C@H]1COc2c(N3CCN(C)CC3)c(F)cc3c(=O)c(C(=O)O)cn1c23.C[C@H]1COc2c(N3CCN(C)CC3)c(F)cc3c(=O)c(C(=O)O)cn1c23.O

>  <label-class>
high class

$$$$
>  <molecule>
CS(=O)(=O)O.NCC1CN(c2nc3c(cc2F)c(=O)c(C(=O)O)cn3C2CC2)C/C1=N\OCc1ccc(OCc2ccccc2)cc1 (racemic)

>  <label-class>
high class

$$$$
>  <molecule>
COc1ccc(CO/N=C2\CN(c3nc4c(cc3F)c(=O)c(C(=O)O)cn4C3CC3)CC2CN)c(Cl)c1OC.CS(=O)(=O)O (racemic)

>  <label-class>
low class

$$$$
>  <molecule>
CS(=O)(=O)O.Cc1ccc(CO/N=C2\CN(c3nc4c(cc3F)c(=O)c(C(=O)O)cn4C3CC3)CC2CN)cc1C (racemic)

>  <label-class>
high class

$$$$
>  <molecule>
CS(=O)(=O)O.NCC1CN(c2nc3c(cc2F)c(=O)c(C(=O)O)cn3C2CC2)C/C1=N\OCc1ccc2c(c1)OCO2 (racemic)

>  <label-class>
middle class

$$$$
>  <molecule>
COc1ccc(CO/N=C2\CN(c3nc4c(cc3F)c(=O)c(C(=O)O)cn4C3CC3)CC2CN)c([N+](=O)[O-])c1OC.CS(=O)(=O)O (racemic)

>  <label-class>
middle class

$$$$

Where these numbers come from: ChEMBL document CHEMBL2062435
